# pEC50 values compiled below
system: T1, recombinant human DLL4 (human, UniProt Q9NR61 25-522)
T1 construct: also called rhDLL4; hDLL4
T1 sequence (Q9NR61 25-522): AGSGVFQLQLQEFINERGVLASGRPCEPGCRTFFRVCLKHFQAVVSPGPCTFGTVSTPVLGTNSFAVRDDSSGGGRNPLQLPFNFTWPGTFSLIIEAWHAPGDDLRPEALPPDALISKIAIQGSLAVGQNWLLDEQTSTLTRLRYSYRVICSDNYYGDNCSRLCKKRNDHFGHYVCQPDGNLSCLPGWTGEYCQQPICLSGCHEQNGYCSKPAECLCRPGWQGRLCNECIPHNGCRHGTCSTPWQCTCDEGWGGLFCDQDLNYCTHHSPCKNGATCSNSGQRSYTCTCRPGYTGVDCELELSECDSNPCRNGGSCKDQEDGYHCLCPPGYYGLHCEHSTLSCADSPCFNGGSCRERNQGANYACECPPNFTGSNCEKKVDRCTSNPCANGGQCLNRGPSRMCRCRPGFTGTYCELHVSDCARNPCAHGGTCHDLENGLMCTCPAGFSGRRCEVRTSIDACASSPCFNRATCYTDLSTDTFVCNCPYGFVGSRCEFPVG
method.notes: binding ELISA, coated rhDLL4
pEC50: −log10 of the molar value.
value.type: pEC50

[[record]]
binder = "DLLBII101G08 (VHH, also called 101G8; DLLBII101G8) VHH: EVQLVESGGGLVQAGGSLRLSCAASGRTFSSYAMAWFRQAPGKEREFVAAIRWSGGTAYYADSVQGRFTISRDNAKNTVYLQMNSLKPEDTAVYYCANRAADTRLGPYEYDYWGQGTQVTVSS"
value_type = "pEC50"
observed = 8.05

[[record]]
binder = "DLLBII56H08 (VHH) VHH: EVQLVESGGGLVQPGGSLRLSCAASGFTFDDYAIGWFRQAPGKEPEEISCISSSGGITYYADSVKGRFTISRDNAKNTVYLQMNSLKPEDTAVYYCATPGIAACRGIHYTGQGTQVTVSS"
value_type = "pEC50"
observed = 8.39

